- Tested on: MDA-MB-435
- Measurement notes: NCI tumour cell line growth inhibition, 48 h
Where a SMILES comes first, the peptide text is derived from it. The star is where a group is joined. Boc = CC(C)(C)OC(=O)*
Here, each record is paired with measured TGI data.

For orientation, consider the following solved cases.
>>> print(df.to_string())
                                   molecule  metric_name  readout_value
0           O=C(CSc1ncnc2nc[nH]c12)c1ccccc1          TGI       > 100 µM
1           C=CC1(c2ccc(-c3ccccc3)cc2)OCCO1          TGI       > 100 µM
2  C[N+]1([O-])CCC(O)(C2CC2)CC1 (stereo not given)          TGI       > 100 µM
3  O=P1(N(CCCl)CCCl)Oc2ccc(Cl)cc2Sc2c(ccc(Cl)c2Cl)O1 (stereo not given)          TGI       > 100 µM
4  CCOC(=O)CO/N=C\C1=CC(=O)C2CC1C2(C)C (stereo not given)          TGI       > 100 µM

INPUT: Would you kindly share the measured TGI for OC1CCCCCCCCCCC1SCCCCl (stereo not given) ?
OUTPUT: > 100 µM

INPUT: Would you kindly share the measured TGI for `COc1ccc(-c2nc(N3CCCC3)no2)cc1` ?
OUTPUT: > 100 µM

INPUT: Would you kindly share the measured TGI for `Oc1ccc[n+](Cc2ccccc2)c1` ?
OUTPUT: > 100 µM

INPUT: Would you kindly share the measured TGI for `O=C(O)c1cccc(SSc2cccc(C(=O)O)c2)c1` ?
OUTPUT: > 100 µM

INPUT: Would you kindly share the measured TGI for `S=c1oc(CCCCCCCCc2nn(CNc3ccccc3)c(=S)o2)nn1CNc1ccccc1` ?
OUTPUT: > 100 µM

INPUT: Would you kindly share the measured TGI for `N#CCCC1(CCC#N)CCCCCCC(CCC#N)(CCC#N)C(=O)C1=O` ?
OUTPUT: > 100 µM

INPUT: Would you kindly share the measured TGI for COc1ccc(Cc2c(-c3ccc(C)cc3)n[nH]c(=O)c2C2C(=O)N(c3ccccc3)N=C2c2ccccc2)cc1 (stereo not given) ?
OUTPUT: 45 µM

INPUT: Would you kindly share the measured TGI for `Cc1ccc(-c2nc3cc(N4CCN(C)CC4)c(F)cc3[nH]2)cc1` ?
OUTPUT: 48.1 µM

INPUT: Would you kindly share the measured TGI for `Nc1nc2c(c(=O)[nH]1)CN(CCCN1CCOCC1)CN2` ?
OUTPUT: > 100 µM

INPUT: Would you kindly share the measured TGI for `CCN(CC)CCNC(=O)c1cc2cc(NC(=O)c3cc4cc(N)ccc4[nH]3)ccc2[nH]1` ?
OUTPUT: 58 µM

INPUT: Would you kindly share the measured TGI for `Cc1n[nH]c(=S)n1/N=C/c1ccc(-c2ccc(Cl)cc2)o1` ?
OUTPUT: > 100 µM

INPUT: Would you kindly share the measured TGI for `Cc1ccc(Nc2nc3ccccc3c(=O)n2N)cc1` ?
OUTPUT: > 100 µM

INPUT: Would you kindly share the measured TGI for `N#C/C(=C1C=C/C(=N/O)C(Cl)=C/1)c1ccc(Cl)cc1` ?
OUTPUT: 8.45 µM

INPUT: Would you kindly share the measured TGI for CCCC(=O)OCC1OC(n2cnc3c(=S)nc(N)[nH]c32)C(OC(=O)CCC)C1OC(=O)CCC (stereo not given) ?
OUTPUT: 46.9 µM

INPUT: Would you kindly share the measured TGI for CC(C)(C)OC(=O)NC(Cc1ccccc1)C(=O)N1CCCC1C(N)=O (stereo not drawn) (Boc-Phe-Pro-NH2; configuration not given here) ?
OUTPUT: > 100 µM

INPUT: Would you kindly share the measured TGI for CCOC(=O)C(C)c1nc2cc3cccnc3c(Cl)c2[nH]c1=O (stereo not given) ?
OUTPUT: > 100 µM

INPUT: Would you kindly share the measured TGI for `O=C1CCC/C=C\C[C@H]2C=CC(=O)/C2=C/C[C@H](CCc2cccc(C(F)(F)F)c2)O1` ?
OUTPUT: 2.7 µM

INPUT: Would you kindly share the measured TGI for CCOC(=O)C(Br)(C(N)=O)C1(O)OC(c2ccccc2)=C(Br)C1=O (stereo not given) ?
OUTPUT: > 100 µM

INPUT: Would you kindly share the measured TGI for `COC(=O)c1c(C)c2n(c1C)C(=O)C(c1ccccc1)=C2` ?
OUTPUT: > 100 µM

INPUT: Would you kindly share the measured TGI for `COc1ccc([C@H]2CC(=O)C[C@H](c3ccc(OC)cc3OC)C23C(=O)c2ccccc2C3=O)c(OC)c1` ?
OUTPUT: > 100 µM
